biological target: CLR/RAMP2 receptor (Homo sapiens, UniProt O60895+Q16602); assay: CLR/RAMP2 arrestin assay, antagonist mode (ADM-stimulated); format: cell-based
Sequence (Q16602 23-461): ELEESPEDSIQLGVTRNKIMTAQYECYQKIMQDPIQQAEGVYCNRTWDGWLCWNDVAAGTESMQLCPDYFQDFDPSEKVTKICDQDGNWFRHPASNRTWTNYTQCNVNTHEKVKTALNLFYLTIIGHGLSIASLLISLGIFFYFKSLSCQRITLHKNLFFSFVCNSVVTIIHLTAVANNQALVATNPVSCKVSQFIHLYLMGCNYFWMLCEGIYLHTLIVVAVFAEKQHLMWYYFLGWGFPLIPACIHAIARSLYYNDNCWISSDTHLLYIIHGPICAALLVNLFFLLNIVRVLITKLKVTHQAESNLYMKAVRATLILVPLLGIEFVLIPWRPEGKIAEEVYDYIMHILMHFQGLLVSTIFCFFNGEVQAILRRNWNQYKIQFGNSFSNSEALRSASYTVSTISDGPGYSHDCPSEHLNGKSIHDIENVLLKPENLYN
Sequence (O60895 43-175): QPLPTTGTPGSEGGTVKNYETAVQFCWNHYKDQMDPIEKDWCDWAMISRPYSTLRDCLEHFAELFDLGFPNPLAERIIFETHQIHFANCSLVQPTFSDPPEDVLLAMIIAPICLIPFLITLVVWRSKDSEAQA
Please respond with reported CLR/RAMP2 Max Activity % of positive control (antagonist) for every item in the list.

## Input API: value(readout=CLR/RAMP2 Max Activity % of positive control (antagonist), system=CLR/RAMP2 receptor (Homo sapiens, UniProt O60895+Q16602)) for record Ace-KRPPGFSPFR-miniPEG-K(Pal)VQKLAHQIYQFTDKDVAPRSKISPQGY-NH2 [SEQ ID NO: 149]
## Output 99 % of positive control

## Input API: value(readout=CLR/RAMP2 Max Activity % of positive control (antagonist), system=CLR/RAMP2 receptor (Homo sapiens, UniProt O60895+Q16602)) for record Ace-YGGFLRRIRPKLK-miniPEG-K(Pal)VQKLSAPVDPSSPHSY-NH2 [SEQ ID NO: 146]
## Output 98 % of positive control

## Input API: value(readout=CLR/RAMP2 Max Activity % of positive control (antagonist), system=CLR/RAMP2 receptor (Homo sapiens, UniProt O60895+Q16602)) for record miniPEG-K(PAL)VQKLSAPVDPSSPHSY-NH2 [SEQ ID NO: 140]
## Output 90 % of positive control

## Input API: value(readout=CLR/RAMP2 Max Activity % of positive control (antagonist), system=CLR/RAMP2 receptor (Homo sapiens, UniProt O60895+Q16602)) for record Pyr(glu)-LYENKPRRPYIL-miniPEG-K(Pal)VQKLSAPVDPSSPHSY-NH2 [SEQ ID NO: 224]
## Output 100 % of positive control
